FYI, the data here is from the supplement of paper PMC4862054.

# System: MDA-MB-468
# assay-remarks: normalised response (% of control), CellTiter-Glo; higher = more viable cells (100 = DMSO, 0 = benzethonium chloride kill control)
# recorded-conditions: incubation time: 72 h
metric-name: normalised response (%)
Unit % implied. Number only.

Inquiry: What value of measured normalised response is listed for COc1cc(CCc2cc(NC(=O)c3ccc(N4CC(C)NC(C)C4)cc3)n[nH]2)cc(OC)c1 (configuration not stated) [AZD4547] (1000 nM) ?
Reply text: 104

Inquiry: What value of measured normalised response is listed for CCC/C=C/C=C/C(=O)O[C@H]1/C(=C/C(=O)OC)C[C@H]2C[C@H]([C@@H](C)O)OC(=O)C[C@H](O)C[C@@H]3C[C@H](OC(C)=O)C(C)(C)[C@](O)(C[C@@H]4C/C(=C/C(=O)OC)C[C@H](/C=C/C(C)(C)[C@]1(O)O2)O4)O3 [Bryostatin 1] (100 nM) ?
Reply text: 98.3

Inquiry: What value of measured normalised response is listed for CC[C@@]1(O)C(=O)OCc2c1cc1n(c2=O)Cc2cc3c(CN(C)C)c(O)ccc3nc2-1 [Topotecan] (10000 nM) ?
Reply text: 4.47

Inquiry: What value of measured normalised response is listed for CO[C@@H](C(=O)N1Cc2[nH]nc(NC(=O)c3ccc(N4CCN(C)CC4)cc3)c2C1)c1ccccc1 [Danusertib] (10000 nM) ?
Reply text: 50.1

Inquiry: What value of measured normalised response is listed for Nc1cccc2c1CN(C1CCC(=O)NC1=O)C2=O (configuration not stated) [Lenalidomide] (10000 nM) ?
Reply text: 107

Inquiry: What value of measured normalised response is listed for Cc1c(CN2CCN(C(=O)[C@H](C)O)CC2)sc2c(N3CCOCC3)nc(-c3cnc(N)nc3)nc12 [GDC-0980] (10000 nM) ?
Reply text: 17.8

Inquiry: What value of measured normalised response is listed for COc1nc(N)nc2c1ncn2[C@@H]1O[C@H](CO)[C@@H](O)[C@@H]1O [Nelarabine] (10000 nM) ?
Reply text: 87.1

Inquiry: What value of measured normalised response is listed for Nc1ccccc1NC(=O)c1ccc(CNc2nccc(-c3cccnc3)n2)cc1 [Mocetinostat] (10000 nM) ?
Reply text: 5.88

Inquiry: What value of measured normalised response is listed for C[C@]12O[C@H](C[C@]1(O)CO)n1c3ccccc3c3c4c(c5c6ccccc6n2c5c31)CNC4=O [Lestaurtinib] (1000 nM) ?
Reply text: 35.6

Inquiry: What value of measured normalised response is listed for CC(=O)OC[C@H]1O[C@@H]([S-])[C@H](OC(C)=O)[C@@H](OC(C)=O)[C@@H]1OC(C)=O.CCP(CC)CC.[Au+] [Auranofin] (2500 nM) ?
Reply text: 0.33

Inquiry: What value of measured normalised response is listed for CCN(CC)CCNC(=O)c1c(C)[nH]c(/C=C2\C(=O)Nc3ccc(F)cc32)c1C [Sunitinib] (1000 nM) ?
Reply text: 107

Inquiry: What value of measured normalised response is listed for O=C(CCBr)N1CCN(C(=O)CCBr)CC1 [Pipobroman] (10000 nM) ?
Reply text: 100

* * *

# Tested on: MDA-MB-436
# assay-remarks: normalised response (% of control), CellTox Green; higher = less cell death (100 = DMSO, 0 = benzethonium chloride kill control)
# recorded-conditions: incubation time: 72 h
metric-name: normalised response (%)
Unit % implied. Number only.

Inquiry: What value of measured normalised response is listed for COc1nc(N)nc2c1ncn2[C@@H]1O[C@H](CO)[C@@H](O)[C@@H]1O [Nelarabine] (10000 nM) ?
Reply text: 91

Inquiry: What value of measured normalised response is listed for O=C(Nc1c[nH]nc1-c1nc2ccc(CN3CCOCC3)cc2[nH]1)NC1CC1 [AT9283] (10 nM) ?
Reply text: 103

Inquiry: What value of measured normalised response is listed for Cn1cc(CNCC2CCN(c3ncc(C(=O)NO)cn3)CC2)c2ccccc21 [Quisinostat] (1000 nM) ?
Reply text: 91.8

Inquiry: What value of measured normalised response is listed for Cc1ccc(Nc2nccc(N(C)c3ccc4c(C)n(C)nc4c3)n2)cc1S(N)(=O)=O [Pazopanib] (10000 nM) ?
Reply text: 96.9

Inquiry: What value of measured normalised response is listed for C[C@]12C=CC(=O)C=C1CC[C@@H]1[C@@H]2[C@@H](O)C[C@@]2(C)[C@H]1CC[C@]2(O)C(=O)CO [Prednisolone] (100 nM) ?
Reply text: 89.9

Inquiry: What value of measured normalised response is listed for Cc1c(CN2CCN(C(=O)[C@H](C)O)CC2)sc2c(N3CCOCC3)nc(-c3cnc(N)nc3)nc12 [GDC-0980] (1000 nM) ?
Reply text: 102

Inquiry: What value of measured normalised response is listed for CC(C)N(CCCNC(=O)Nc1ccc(C(C)(C)C)cc1)C[C@H]1O[C@@H](n2cc(Br)c3c(N)ncnc32)[C@H](O)[C@@H]1O [SGC0946] (1000 nM) ?
Reply text: 97.8

* * *

# Test system: MDA-MB-468
# assay-remarks: normalised response (% of control), CellTiter-Glo; higher = more viable cells (100 = DMSO, 0 = benzethonium chloride kill control)
# recorded-conditions: incubation time: 72 h
metric-name: normalised response (%)
Unit % implied. Number only.

Inquiry: Tell me reported normalised response for Cc1nc(Nc2ncc(C(=O)Nc3c(C)cccc3Cl)s2)cc(N2CCN(CCO)CC2)n1 [Dasatinib] (1 nM) , tested with MDA-MB-468.
Reply text: 95.6

Inquiry: Tell me reported normalised response for CCN(CC)CCNC(=O)c1c(C)[nH]c(/C=C2\C(=O)Nc3ccc(F)cc32)c1C [Sunitinib] (1 nM) , tested with MDA-MB-468.
Reply text: 106

Inquiry: Tell me reported normalised response for CC[C@@]1(O)C(=O)OCc2c1cc1n(c2=O)Cc2cc3c(CN(C)C)c(O)ccc3nc2-1 [Topotecan] (10 nM) , tested with MDA-MB-468.
Reply text: 97.6

Inquiry: Tell me reported normalised response for COc1nc(N)nc2c1ncn2[C@@H]1O[C@H](CO)[C@@H](O)[C@@H]1O [Nelarabine] (1000 nM) , tested with MDA-MB-468.
Reply text: 92.1

Inquiry: Tell me reported normalised response for Cc1cccc(-c2nn3c(c2-c2ccnc4ccc(C(N)=O)cc24)CCC3)n1 [Galunisertib] (1 nM) , tested with MDA-MB-468.
Reply text: 104

Inquiry: Tell me reported normalised response for Cn1cc(CNCC2CCN(c3ncc(C(=O)NO)cn3)CC2)c2ccccc21 [Quisinostat] (100 nM) , tested with MDA-MB-468.
Reply text: 34.5

Inquiry: Tell me reported normalised response for C[C@]12C=CC(=O)C=C1CC[C@@H]1[C@@H]2[C@@H](O)C[C@@]2(C)[C@H]1CC[C@]2(O)C(=O)CO [Prednisolone] (1000 nM) , tested with MDA-MB-468.
Reply text: 121

* * *

Kindly supply the reported normalised response values for the records listed here.
# System: CAL-85-1
# assay-remarks: normalised response (% of control), CellTiter-Glo; higher = more viable cells (100 = DMSO, 0 = benzethonium chloride kill control)
# recorded-conditions: incubation time: 72 h
Param answer (str): number followed by unit.

Inquiry: What value of measured normalised response is listed for O=C(CCBr)N1CCN(C(=O)CCBr)CC1 [Pipobroman] (10000 nM) ?
Reply text: 98.2%

Inquiry: What value of measured normalised response is listed for CS(=O)(=O)N1CCN(Cc2cc3nc(-c4cccc5[nH]ncc45)nc(N4CCOCC4)c3s2)CC1 [Pictilisib] (10000 nM) ?
Reply text: 27.8%

Inquiry: What value of measured normalised response is listed for C[C@]12O[C@H](C[C@]1(O)CO)n1c3ccccc3c3c4c(c5c6ccccc6n2c5c31)CNC4=O [Lestaurtinib] (1000 nM) ?
Reply text: 32.5%

* * *

# Test system: SK-BR-3
# assay-remarks: drug sensitivity score (DSS), CellTiter-Glo (DSS (AUC-based score)); higher = stronger drug effect (viability inhibition or cytotoxicity); extreme values may be limits of the assay
# recorded-conditions: incubation time: 72 h
Kindly supply the reported drug sensitivity score values for the records listed here.
Please reply with the number alone, leaving off any unit.

Inquiry: What value of measured drug sensitivity score is listed for COc1nc(N)nc2c1ncn2[C@@H]1O[C@H](CO)[C@@H](O)[C@@H]1O [Nelarabine] ?
Reply text: 0

Inquiry: What value of measured drug sensitivity score is listed for Cc1nc(Nc2ncc(C(=O)Nc3c(C)cccc3Cl)s2)cc(N2CCN(CCO)CC2)n1 [Dasatinib] ?
Reply text: 0

Inquiry: What value of measured drug sensitivity score is listed for CCC/C=C/C=C/C(=O)O[C@H]1/C(=C/C(=O)OC)C[C@H]2C[C@H]([C@@H](C)O)OC(=O)C[C@H](O)C[C@@H]3C[C@H](OC(C)=O)C(C)(C)[C@](O)(C[C@@H]4C/C(=C/C(=O)OC)C[C@H](/C=C/C(C)(C)[C@]1(O)O2)O4)O3 [Bryostatin 1] ?
Reply text: 10.8

Inquiry: What value of measured drug sensitivity score is listed for CCCCC/C=C/C=C1/C(=O)C=C[C@@H]1C/C=C\CCCC(=O)O [15D-PGJ2] ?
Reply text: 0

Inquiry: What value of measured drug sensitivity score is listed for CNC(=O)c1cc(Oc2ccc(NC(=O)Nc3ccc(Cl)c(C(F)(F)F)c3)cc2)ccn1 [Sorafenib] ?
Reply text: 0

Inquiry: What value of measured drug sensitivity score is listed for Cc1c(Cn2c(C)nc3c(C(=O)O)cc(N4CCOCC4)cc32)cccc1C(F)(F)F ?
Reply text: 0

Inquiry: What value of measured drug sensitivity score is listed for COc1ccc(-c2cc3c(C)nc(N)nc3n([C@H]3CC[C@H](OCCO)CC3)c2=O)cn1 ?
Reply text: 22.1

Inquiry: What value of measured drug sensitivity score is listed for CC(C)N(CCCNC(=O)Nc1ccc(C(C)(C)C)cc1)C[C@H]1O[C@@H](n2cc(Br)c3c(N)ncnc32)[C@H](O)[C@@H]1O [SGC0946] ?
Reply text: 0

Inquiry: What value of measured drug sensitivity score is listed for CC/C(=C(\c1ccc(O)cc1)c1ccc(OCCN(C)C)cc1)c1ccccc1 [4-hydroxytamoxifen] ?
Reply text: 1.4

Inquiry: What value of measured drug sensitivity score is listed for CS(=O)(=O)N1CCN(Cc2cc3nc(-c4cccc5[nH]ncc45)nc(N4CCOCC4)c3s2)CC1 [Pictilisib] ?
Reply text: 14.2
